assay: Biodistribution in Jurkat xenograft-bearing mice, 1 h p.i.; format: in vivo; settings: female, CB17/SCID, mouse, blood, iv, total radioactivity, n = 5, mean ± SD, read-out: Biodistribution Blood
Where a SMILES comes first, the peptide text is derived from it. Side-chain parts run from the residue outwards. [ ]: non-standard residue; d: D form. The star is where a group is joined. 2Nal = N[C@@H](Cc1ccc2ccccc2c1)C(=O)O; dNMeOrn = CN[C@H](CCCN)C(=O)O; HYNIC = NNc1ccc(C(=O)*)cn1; 4Abz = Nc1ccc(C(=O)O)cc1; dDap = NC[C@@H](N)C(=O)O
Reported endpoint: tissue uptake at 1 h (%ID/g)
Entry rule: numbers only, all in %ID/g.

Query: Entry C[C@@H](NC(=O)[C@@H](CCCNC(=N)N)NC(=O)[C@@H](CN)NC(=O)c1ccc(NN)nc1)C(=O)Nc1ccc(C(=O)NCCC[C@@H]2C(=O)N[C@@H](CCCNC(=N)N)C(=O)N[C@@H](Cc3ccc4ccccc4c3)C(=O)NCC(=O)N[C@H](Cc3ccc(O)cc3)C(=O)N2C)cc1 [[^99mTc]Tc-HYNIC-L6-CPCR4, metal not drawn] (cyclo([dY][dNMeOrn]([4Abz-dA-dR-dDap-HYNIC])R[2Nal]G)) has what tissue uptake at 1 h?
Result: 1.6

* * *

assay: Biodistribution in Jurkat xenograft-bearing mice, 1 h p.i.; format: in vivo; conditions: female, CB17/SCID, mouse, kidneys, iv, total radioactivity, n = 5, mean ± SD, read-out: Biodistribution Kidneys
Where a SMILES comes first, the peptide text is derived from it. Side-chain parts run from the residue outwards. [ ]: non-standard residue; d: D form. The star is where a group is joined. 2Nal = N[C@@H](Cc1ccc2ccccc2c1)C(=O)O; dNMeOrn = CN[C@H](CCCN)C(=O)O; HYNIC = NNc1ccc(C(=O)*)cn1; 4Abz = Nc1ccc(C(=O)O)cc1; dDap = NC[C@@H](N)C(=O)O
Reported endpoint: tissue uptake at 1 h (%ID/g)
Answer with a number only, understood to be in %ID/g.

Query: For the molecule shown here, C[C@@H](NC(=O)[C@@H](CCCNC(=N)N)NC(=O)[C@@H](CN)NC(=O)c1ccc(NN)nc1)C(=O)Nc1ccc(C(=O)NCCC[C@@H]2C(=O)N[C@@H](CCCNC(=N)N)C(=O)N[C@@H](Cc3ccc4ccccc4c3)C(=O)NCC(=O)N[C@H](Cc3ccc(O)cc3)C(=O)N2C)cc1 [[^99mTc]Tc-HYNIC-L6-CPCR4, metal not drawn] (cyclo([dY][dNMeOrn]([4Abz-dA-dR-dDap-HYNIC])R[2Nal]G)) , give the reported tissue uptake at 1 h.
Result: 29.5

* * *

Test: Biodistribution in Jurkat xenograft-bearing mice, 1 h p.i.
Type: in vivo
Conditions: female, CB17/SCID, mouse, heart, iv, total radioactivity, n = 5, mean ± SD, read-out: Biodistribution Heart
Description: Female CB17/SCID mice bearing subcutaneous Jurkat human T cell lymphoma xenografts (for more detailed information, see supplemental material) were injected intravenously with the respective ^99mTc-labeled tracer (5–20 MBq, 0.1–0.2 nmol/mouse) under isofluorane anesthesia and were sacrificed at 1 h post-injection (p.i.). […]
Where a SMILES comes first, the peptide text is derived from it. Side-chain parts run from the residue outwards. [ ]: non-standard residue; d: D form. The star is where a group is joined. 2Nal = N[C@@H](Cc1ccc2ccccc2c1)C(=O)O; dNMeOrn = CN[C@H](CCCN)C(=O)O; HYNIC = NNc1ccc(C(=O)*)cn1; 4Abz = Nc1ccc(C(=O)O)cc1; dDap = NC[C@@H](N)C(=O)O
Reported endpoint: tissue uptake at 1 h (%ID/g)
Dear colleague, please return just the value in %ID/g, with no unit written.

Query: Return reported tissue uptake at 1 h; argument: C[C@@H](NC(=O)[C@@H](CCCNC(=N)N)NC(=O)[C@@H](CN)NC(=O)c1ccc(NN)nc1)C(=O)Nc1ccc(C(=O)NCCC[C@@H]2C(=O)N[C@@H](CCCNC(=N)N)C(=O)N[C@@H](Cc3ccc4ccccc4c3)C(=O)NCC(=O)N[C@H](Cc3ccc(O)cc3)C(=O)N2C)cc1 [[^99mTc]Tc-HYNIC-L6-CPCR4, metal not drawn] (cyclo([dY][dNMeOrn]([4Abz-dA-dR-dDap-HYNIC])R[2Nal]G))
Result: 0.8

Value source: paper PMC10611619
